These entries and their values trace back to ChEMBL document CHEMBL5260813.

experiment.notes: Ratio of IC50 for antiproliferative activity against human HL-60 cells assessed as inhibition of cell growth under normoxia condition to IC50 for antiproliferative activity against human HL-60 cells assessed as inhibition of cell growth under hypoxia condition
Assay type: functional

>  <structure.notation>
[O-][n+]1nc(NC2CCCCC2)[n+]([O-])c2ccc(Cl)cc21

>  <Ratio IC50>
6.4

$$$$
>  <structure.notation>
CCNc1n[n+]([O-])c2ccccc2[n+]1[O-]

>  <Ratio IC50>
1.6

$$$$
>  <structure.notation>
CCCCCCNc1n[n+]([O-])c2ccccc2[n+]1[O-]

>  <Ratio IC50>
2.8

$$$$
>  <structure.notation>
CCCCCCNc1n[n+]([O-])c2cc(Cl)ccc2[n+]1[O-]

>  <Ratio IC50>
4

$$$$
>  <structure.notation>
Cc1ccc2c(c1)[n+]([O-])nc(Nc1ccccc1)[n+]2[O-]

>  <Ratio IC50>
1.01

$$$$
>  <structure.notation>
CCNc1n[n+]([O-])c2cc([N+](=O)[O-])ccc2[n+]1[O-]

>  <Ratio IC50>
1.4

$$$$
>  <structure.notation>
CCNc1n[n+]([O-])c2cc(C)ccc2[n+]1[O-]

>  <Ratio IC50>
1

$$$$
>  <structure.notation>
COc1ccc2c(c1)[n+]([O-])nc(NC1CCCCC1)[n+]2[O-]

>  <Ratio IC50>
2.2

$$$$
>  <structure.notation>
COc1ccc2c(c1)[n+]([O-])nc(NCC1CCCCC1)[n+]2[O-]

>  <Ratio IC50>
2.4

$$$$

====

experiment.notes: Ratio of IC50 for antiproliferative activity against human PC-3 cells assessed as inhibition of cell growth under normoxia condition to IC50 for antiproliferative activity against human PC-3 cells assessed as inhibition of cell growth under hypoxia condition
Type: functional
Ratio IC50 values by entry

>  <structure.notation>
CCNc1n[n+]([O-])c2ccccc2[n+]1[O-]

>  <Ratio IC50>
4.4

$$$$
>  <structure.notation>
[O-][n+]1nc(NCc2ccccc2)[n+]([O-])c2ccccc21

>  <Ratio IC50>
2.3

$$$$
>  <structure.notation>
CCCCCCNc1n[n+]([O-])c2cc(Cl)ccc2[n+]1[O-]

>  <Ratio IC50>
1.4

$$$$
>  <structure.notation>
CCNc1n[n+]([O-])c2cc(OC)ccc2[n+]1[O-]

>  <Ratio IC50>
1.2

$$$$
>  <structure.notation>
[O-][n+]1nc(NC2CCCCC2)[n+]([O-])c2ccccc21

>  <Ratio IC50>
1.5

$$$$

====

experiment.notes: Ratio of IC50 for antiproliferative activity against human Bel-7402 cells assessed as inhibition of cell growth under normoxia condition to IC50 for antiproliferative activity against human Bel-7402 cells assessed as inhibition of cell growth under hypoxia condition
Assay type: functional
readout.kind: Ratio IC50

>  <structure.notation>
O=[N+]([O-])c1ccc2c(c1)[n+]([O-])nc(NCc1ccccc1)[n+]2[O-]

>  <number>
1.17

$$$$
>  <structure.notation>
CCNc1n[n+]([O-])c2cc(Cl)ccc2[n+]1[O-]

>  <number>
2.4

$$$$
>  <structure.notation>
O=[N+]([O-])c1ccc2c(c1)[n+]([O-])nc(NC1CCCCC1)[n+]2[O-]

>  <number>
1.68

$$$$
>  <structure.notation>
Cc1ccc2c(c1)[n+]([O-])nc(Nc1ccccc1)[n+]2[O-]

>  <number>
2.07

$$$$
>  <structure.notation>
[O-][n+]1nc(Nc2ccccc2)[n+]([O-])c2ccccc21

>  <number>
2

$$$$
>  <structure.notation>
CCCCCCNc1n[n+]([O-])c2cc(Cl)ccc2[n+]1[O-]

>  <number>
1.6

$$$$
>  <structure.notation>
Nc1n[n+]([O-])c2ccccc2[n+]1[O-]

>  <number>
1.8

$$$$
>  <structure.notation>
[O-][n+]1nc(NCc2ccccc2)[n+]([O-])c2ccccc21

>  <number>
2.8

$$$$
>  <structure.notation>
[O-][n+]1nc(NC2CCCCC2)[n+]([O-])c2ccccc21

>  <number>
1.1

$$$$
>  <structure.notation>
Cc1ccc2c(c1)[n+]([O-])nc(NCc1ccccc1)[n+]2[O-]

>  <number>
2.54

$$$$
>  <structure.notation>
COc1ccc2c(c1)[n+]([O-])nc(NCC1CCCCC1)[n+]2[O-]

>  <number>
2

$$$$
>  <structure.notation>
Cc1ccc2c(c1)[n+]([O-])nc(NC1CCCCC1)[n+]2[O-]

>  <number>
1.1

$$$$
>  <structure.notation>
O=[N+]([O-])c1ccc2c(c1)[n+]([O-])nc(Nc1ccccc1)[n+]2[O-]

>  <number>
1.44

$$$$
>  <structure.notation>
CCNc1n[n+]([O-])c2cc(OC)ccc2[n+]1[O-]

>  <number>
1.07

$$$$
>  <structure.notation>
[O-][n+]1nc(NCc2ccccc2)[n+]([O-])c2ccc(Cl)cc21

>  <number>
1.8

$$$$
>  <structure.notation>
COc1ccc2c(c1)[n+]([O-])nc(NC1CCCCC1)[n+]2[O-]

>  <number>
1.6

$$$$
>  <structure.notation>
CCNc1n[n+]([O-])c2cc(C)ccc2[n+]1[O-]

>  <number>
1.74

$$$$
>  <structure.notation>
CCNc1n[n+]([O-])c2ccccc2[n+]1[O-]

>  <number>
2.2

$$$$
>  <structure.notation>
CCCCCCNc1n[n+]([O-])c2cc([N+](=O)[O-])ccc2[n+]1[O-]

>  <number>
1.5

$$$$
>  <structure.notation>
CCNc1n[n+]([O-])c2cc([N+](=O)[O-])ccc2[n+]1[O-]

>  <number>
1.6

$$$$
>  <structure.notation>
[O-][n+]1nc(NC2CCCCC2)[n+]([O-])c2ccc(Cl)cc21

>  <number>
1

$$$$

====

Measured Ratio IC50 accompanies every entry in the list below.
experiment.notes: Ratio of IC50 for antiproliferative activity against human PC-3 cells assessed as inhibition of cell growth under normoxia condition to IC50 for antiproliferative activity against human PC-3 cells assessed as inhibition of cell growth under hypoxia condition
Format: functional
readout.kind: Ratio IC50

>  <structure.notation>
CCCCCCNc1n[n+]([O-])c2ccccc2[n+]1[O-]

>  <readout.kind>
Ratio IC50

>  <result>
1.19

$$$$
>  <structure.notation>
CCCCCCNc1n[n+]([O-])c2cc(C)ccc2[n+]1[O-]

>  <readout.kind>
Ratio IC50

>  <result>
1.3

$$$$
>  <structure.notation>
Nc1n[n+]([O-])c2ccccc2[n+]1[O-]

>  <readout.kind>
Ratio IC50

>  <result>
3.8

$$$$
>  <structure.notation>
Cc1ccc2c(c1)[n+]([O-])nc(Nc1ccccc1)[n+]2[O-]

>  <readout.kind>
Ratio IC50

>  <result>
1.2

$$$$
>  <structure.notation>
Cc1ccc2c(c1)[n+]([O-])nc(NC1CCCCC1)[n+]2[O-]

>  <readout.kind>
Ratio IC50

>  <result>
1.2

$$$$
>  <structure.notation>
Cc1ccc2c(c1)[n+]([O-])nc(NCc1ccccc1)[n+]2[O-]

>  <readout.kind>
Ratio IC50

>  <result>
2.4

$$$$

====

Catalogue of IC50 readings, one per entry.
assayed.system: Cyclin-dependent kinase 2/cyclin E (Homo sapiens, UniProt P24941)
experiment.notes: Inhibition of CDK2/cyclin E (unknown origin)

>  <compound>
O=C1NC(SSC2NN=C(c3cc(F)ccc3NC(=O)c3ccc(F)cc3)C(=O)N2)NN=C1c1cc(F)ccc1NC(=O)c1ccc(F)cc1 (centres undefined)

>  <IC50 (µM)>
3.8

$$$$
>  <compound>
Nc1ccc(F)cc1C1=NNC(Nc2ccc(F)cc2)NC1=O (centres undefined)

>  <IC50 (µM)>
3.8

$$$$
>  <compound>
CNc1ccc(F)cc1C1=NNC(SC)NC1=O (centres undefined)

>  <IC50 (µM)>
5

$$$$
>  <compound>
Fc1ccc(-c2nnc(-n3c(=S)[nH][nH]c3=S)nc2-c2ccc(F)cc2)cc1

>  <IC50 (µM)>
9.99

$$$$
>  <compound>
CSC1NN=C(c2cc(F)ccc2NC(=O)c2ccc(F)cc2)C(=O)N1 (centres undefined)

>  <IC50 (µM)>
3.8

$$$$
>  <compound>
Cc1n[nH]c(=S)n(-c2nnc(-c3ccc(F)cc3)c(-c3ccc(F)cc3)n2)c1=O

>  <IC50 (µM)>
9.75

$$$$
>  <compound>
Fc1ccc(-c2nnc(-n3cn[nH]c3=S)nc2-c2ccc(F)cc2)cc1

>  <IC50 (µM)>
10.9

$$$$
>  <compound>
Nc1ccc(F)cc1C1=NNC(S)NC1=O (centres undefined)

>  <IC50 (µM)>
3.8

$$$$
>  <compound>
NNC(=S)Nc1nnc(-c2ccc(F)cc2)c(-c2ccc(F)cc2)n1

>  <IC50 (µM)>
11.2

$$$$
